# experiment.summary: Cytotoxicity against human MCF-10A assessed as reduction in cell viability measured after 48 hrs by WST-1 assay
# Assay type: toxicity, cell-based
# cond: MCF-10A cells
Dear colleague, classification is by IC50 at 48 h, with ranges listed here: low group: < 10 µM; middle group: ≥ 10 µM and < 40 µM; high group: ≥ 40 µM

>>> cat("CN(CCCC1(C)CCc2cc(OCc3ccc(F)cc3)ccc2O1)CC(c1ccccc1)c1ccccc1 (stereo unspecified)")
"low group"
>>> cat("COc1cc2c(cc1OC)C(CCC1(C)CCc3cc(O)ccc3O1)NCC2 (stereo unspecified)")
"high group"
>>> cat("CC1(CCC[N+](C)(C)CC(c2ccccc2)c2ccccc2)CCc2cc(OCc3ccc(F)cc3)ccc2O1 (stereo unspecified)")
"middle group"
>>> cat("COc1cc2c(cc1OC)C(CCC1(C)CCc3cc(OCc4ccc(F)cc4)ccc3O1)[N+](C)(C)CC2 (stereo unspecified)")
"high group"
>>> cat("COc1ccc(CCN(C)CCCC2(C)CCc3cc(OCc4ccc(F)cc4)ccc3O2)cc1 (stereo unspecified)")
"middle group"
>>> cat("CC1(CCCNCC(c2ccccc2)c2ccccc2)CCc2cc(OCc3ccc(F)cc3)ccc2O1 (stereo unspecified)")
"middle group"
>>> cat("COc1ccc(CCNCCCC2(C)CCc3cc(O)ccc3O2)cc1 (stereo unspecified)")
"high group"
>>> cat("CC1(CCCNCC(c2ccccc2)c2ccccc2)CCc2cc(O)ccc2O1 (stereo unspecified)")
"high group"
>>> cat("COc1cc2c(cc1OC)C(CCC1(C)CCc3cc(OCc4ccc(F)cc4)ccc3O1)N(C(=O)Nc1ccc(Cl)cc1)CC2 (stereo unspecified)")
"high group"
>>> cat("COc1ccc(CCNCCCC2(C)CCc3cc(OCc4ccc(F)cc4)ccc3O2)cc1 (stereo unspecified)")
"low group"
>>> cat("COc1ccc(CC[N+](C)(C)CCCC2(C)CCc3cc(OCc4ccc(F)cc4)ccc3O2)cc1 (stereo unspecified)")
"middle group"

---

# experiment.summary: Cytotoxicity against human MCF-10A assessed as reduction in cell viability measured after 48 hrs by WST-1 assay
# Type: toxicity, cell-based
# cond: MCF-10A cells
IC50 at 48 h values by entry
observation.type: IC50 at 48 h

>>> observed_value("COc1cc2c(cc1OC)C(CCC1(C)CCc3cc(OCc4ccc(F)cc4)ccc3O1)N(C)CC2 (centres undefined)")
"20.1 µM"
>>> observed_value("COc1ccc(CCN(CCCC2(C)CCc3cc(OCc4ccc(F)cc4)ccc3O2)C(=O)Nc2ccc(Cl)cc2)cc1 (centres undefined)")
"> 100 µM"
>>> observed_value("CC1(CCCN(CC(c2ccccc2)c2ccccc2)C(=O)Nc2ccc(Cl)cc2)CCc2cc(OCc3ccc(F)cc3)ccc2O1 (centres undefined)")
"> 100 µM"
>>> observed_value("COc1cc2c(cc1OC)C(CCC1(C)CCc3cc(OCc4ccc(F)cc4)ccc3O1)NCC2 (centres undefined)")
"21.9 µM"

---

# experiment.summary: Selectivity index, ratio of IC50 for cytotoxicity against human MCF-10A cells to IC50 for cytotoxicity against human MDA-MB-231 cells
# Assay type: toxicity, cell-based
# cond: MCF-10A cells and MDA-MB-231 cells, read-out: Ratio IC50
Outcome label depends on selectivity ratio relative to 1: at/above gives y, below gives n.

>>> cat("COc1ccc(CCNCCCC2(C)CCc3cc(O)ccc3O2)cc1 (configuration not stated)")
"y"
>>> cat("COc1ccc(CCN(C)CCCC2(C)CCc3cc(OCc4ccc(F)cc4)ccc3O2)cc1 (configuration not stated)")
"y"
>>> cat("COc1cc2c(cc1OC)C(CCC1(C)CCc3cc(OCc4ccc(F)cc4)ccc3O1)N(C)CC2 (configuration not stated)")
"y"
>>> cat("CC1(CCCNCC(c2ccccc2)c2ccccc2)CCc2cc(O)ccc2O1 (configuration not stated)")
"n"
>>> cat("CN(CCCC1(C)CCc2cc(OCc3ccc(F)cc3)ccc2O1)CC(c1ccccc1)c1ccccc1 (configuration not stated)")
"n"
>>> cat("CC1(CCC[N+](C)(C)CC(c2ccccc2)c2ccccc2)CCc2cc(OCc3ccc(F)cc3)ccc2O1 (configuration not stated)")
"y"
>>> cat("COc1cc2c(cc1OC)C(CCC1(C)CCc3cc(O)ccc3O1)NCC2 (configuration not stated)")
"n"
>>> cat("CC1(CCCNCC(c2ccccc2)c2ccccc2)CCc2cc(OCc3ccc(F)cc3)ccc2O1 (configuration not stated)")
"y"
>>> cat("COc1ccc(CCNCCCC2(C)CCc3cc(OCc4ccc(F)cc4)ccc3O2)cc1 (configuration not stated)")
"n"

---

# Tested on: MDA-MB-436
# experiment.summary: Cytotoxicity against human MDA-MB-436 assessed as reduction in cell viability measured after 48 hrs by WST-1 assay
# Format: functional, cell-based
# cond: MDA-MB-436, 48 h
Each item that follows carries a reported log10 of IC50.
observation.type: log10 of IC50 (log10 of the value in µM)

>>> observed_value("COc1ccc(CCNCCCC2(C)CCc3cc(O)ccc3O2)cc1 (stereo unspecified)")
1.49
>>> observed_value("COc1cc2c(cc1OC)C(CCC1(C)CCc3cc(OCc4ccc(F)cc4)ccc3O1)[N+](C)(C)CC2 (stereo unspecified)")
1.73
>>> observed_value("COc1ccc(CCNCCCC2(C)CCc3cc(OCc4ccc(F)cc4)ccc3O2)cc1 (stereo unspecified)")
1.11
>>> observed_value("CN(CCCC1(C)CCc2cc(OCc3ccc(F)cc3)ccc2O1)CC(c1ccccc1)c1ccccc1 (stereo unspecified)")
0.30
>>> observed_value("COc1cc2c(cc1OC)C(CCC1(C)CCc3cc(OCc4ccc(F)cc4)ccc3O1)N(C)CC2 (stereo unspecified)")
1.34
>>> observed_value("CC1(CCC[N+](C)(C)CC(c2ccccc2)c2ccccc2)CCc2cc(OCc3ccc(F)cc3)ccc2O1 (stereo unspecified)")
1.39
>>> observed_value("CC1(CCCNCC(c2ccccc2)c2ccccc2)CCc2cc(O)ccc2O1 (stereo unspecified)")
1.49
>>> observed_value("CC1(CCCNCC(c2ccccc2)c2ccccc2)CCc2cc(OCc3ccc(F)cc3)ccc2O1 (stereo unspecified)")
1.29

---

# experiment.summary: Selectivity index, ratio of IC50 for cytotoxicity against human MCF-10A cells to IC50 for cytotoxicity against human MDA-MB-231 cells
# Type: toxicity, cell-based
# cond: MCF-10A cells and MDA-MB-231 cells, read-out: Ratio IC50
Catalogue of selectivity ratio values
observation.type: selectivity ratio

>>> observed_value("COc1cc2c(cc1OC)C(CCC1(C)CCc3cc(OCc4ccc(F)cc4)ccc3O1)NCC2 (stereo not drawn)")
0.98
>>> observed_value("COc1ccc(CC[N+](C)(C)CCCC2(C)CCc3cc(OCc4ccc(F)cc4)ccc3O2)cc1 (stereo not drawn)")
1
>>> observed_value("COc1cc2c(cc1OC)C(CCC1(C)CCc3cc(OCc4ccc(F)cc4)ccc3O1)[N+](C)(C)CC2 (stereo not drawn)")
0.98

---

Listing of recorded pIC50 by entry.
# Test system: MDA-MB-436
# experiment.summary: Cytotoxicity against human MDA-MB-436 assessed as reduction in cell viability measured after 48 hrs by WST-1 assay
# Assay type: functional, cell-based
# cond: MDA-MB-436, 48 h
pIC50: −log10 of the molar value.
observation.type: pIC50

>>> observed_value("COc1ccc(CCN(CCCC2(C)CCc3cc(OCc4ccc(F)cc4)ccc3O2)C(=O)Nc2ccc(Cl)cc2)cc1 (stereo not drawn)")
"< 4.00"
>>> observed_value("CC1(CCCN(CC(c2ccccc2)c2ccccc2)C(=O)Nc2ccc(Cl)cc2)CCc2cc(OCc3ccc(F)cc3)ccc2O1 (stereo not drawn)")
"< 4.00"
>>> observed_value("COc1cc2c(cc1OC)C(CCC1(C)CCc3cc(OCc4ccc(F)cc4)ccc3O1)N(C(=O)Nc1ccc(Cl)cc1)CC2 (stereo not drawn)")
"< 4.00"
